Measured IC50 catD/IC50 BACE values are reported for all entries that follow.
- assay_target: catD / beta-secretase (BACE)
- experimental_protocol: CatD/BACE selectivity (ratio of IC50 values)
- Type: biochemical
- experimental_conditions: each value is an average of four experimental runs; multiple values = more than one experiment

compound: CNC(=O)NC1CCC(NCC(O)C(Cc2cc(F)cc(F)c2)NC(C)=O)(c2cccc(C(C)(C)C)c2)CC1 (single isomer, unassigned) [196A-46 Diastereomer B]
IC50 catD/IC50 BACE: >1.3
//
compound: CNC1CCC(NCC(O)C(Cc2cc(F)cc(F)c2)NC(C)=O)(c2cccc(C(C)(C)C)c2)CC1 (single isomer, unassigned) [196A-28 Diastereomer B]
IC50 catD/IC50 BACE: >3.9
//
compound: CC(=O)NC(Cc1cc(F)cc(F)c1)C(O)CNC1(c2cccc(C(C)(C)C)c2)CCC(O)(CO)CC1 (single isomer, unassigned) [196A-36 Diastereomer B]
IC50 catD/IC50 BACE: >5.3
//
compound: CNC(=O)NC1CCC(NCC(O)C(Cc2cc(F)cc(F)c2)NC(C)=O)(c2cccc(C(C)(C)C)c2)CC1 (single isomer, unassigned) [196A-45 Diastereomer A]
IC50 catD/IC50 BACE: >3.5
//
compound: CC(=O)NC(Cc1cc(F)cc(F)c1)C(O)CNC1(c2cccc(C(C)(C)C)c2)CCC(N)CC1 (single isomer, unassigned) [196A-29 Diastereomer A]
IC50 catD/IC50 BACE: >8.4
//
compound: CC(=O)NC(Cc1cc(F)cc(F)c1)C(O)CNC1(c2cccc(C(C)(C)C)c2)CCCN(C)C1 (stereo not shown) [Example 196A-40]
IC50 catD/IC50 BACE: >2,0
//
compound: CC(=O)NC(Cc1cc(F)cc(F)c1)C(O)CNC1(c2cccc(C(C)(C)C)c2)CCC(NS(C)(=O)=O)CC1 (single isomer, unassigned) [196A-42 Diastereomer B]
IC50 catD/IC50 BACE: >3.0
//
compound: CC(=O)NC(Cc1cc(F)cc(F)c1)C(O)CNC1(c2cccc(C(C)(C)C)c2)CCC(N)CC1 (single isomer, unassigned) [196A-30 Diastereomer B]
IC50 catD/IC50 BACE: >8.4
//
compound: CC(=O)NC(Cc1cc(F)cc(F)c1)C(O)CNC1(c2cccc(C(C)(C)C)c2)CCC(O)(CO)CC1 (single isomer, unassigned) [196A-35 Diastereomer A]
IC50 catD/IC50 BACE: >7.4
//
compound: CNC1CCC(NCC(O)C(Cc2cc(F)cc(F)c2)NC(C)=O)(c2cccc(C(C)(C)C)c2)CC1 (single isomer, unassigned) [196A-26 Diastereomer A]
IC50 catD/IC50 BACE: >4.7

###

- assay_target: catE / beta-secretase (BACE)
- experimental_protocol: CatE/BACE selectivity (ratio of IC50 values)
- Assay type: biochemical
- experimental_conditions: each value is an average of four experimental runs; multiple values = more than one experiment

molecule: CNC(=O)NC1CCC(NCC(O)C(Cc2cc(F)cc(F)c2)NC(C)=O)(c2cccc(C(C)(C)C)c2)CC1 (single isomer, unassigned) [196B-38 Diastereomer B]
IC50 catE/IC50 BACE: >3.5
--
molecule: CNC(=O)NC1CCC(NCC(O)C(Cc2cc(F)cc(F)c2)NC(C)=O)(c2cccc(C(C)(C)C)c2)CC1 (single isomer, unassigned) [196B-39 Diastereomer A]
IC50 catE/IC50 BACE: >1.3
--
molecule: CC(=O)NC(Cc1cc(F)cc(F)c1)C(O)CNC1(c2cccc(C(C)(C)C)c2)CCC(O)(CO)CC1 (single isomer, unassigned) [196B-27 Diastereomer B]
IC50 catE/IC50 BACE: >5.3
--
molecule: CC(=O)NC(Cc1cc(F)cc(F)c1)C(O)CNC1(c2cccc(C(C)(C)C)c2)CCC(O)(CO)CC1 (single isomer, unassigned) [196B-28 Diastereomer A]
IC50 catE/IC50 BACE: >7.4
--
molecule: CC(=O)NC(Cc1cc(F)cc(F)c1)C(O)CNC1(c2cccc(C(C)(C)C)c2)CCC(NS(C)(=O)=O)CC1 (single isomer, unassigned) [196B-35 Diastereomer B]
IC50 catE/IC50 BACE: >3.0
